- ASSAYED_TARGET: UniProt:P35372
- Sequence (P35372 whole entry): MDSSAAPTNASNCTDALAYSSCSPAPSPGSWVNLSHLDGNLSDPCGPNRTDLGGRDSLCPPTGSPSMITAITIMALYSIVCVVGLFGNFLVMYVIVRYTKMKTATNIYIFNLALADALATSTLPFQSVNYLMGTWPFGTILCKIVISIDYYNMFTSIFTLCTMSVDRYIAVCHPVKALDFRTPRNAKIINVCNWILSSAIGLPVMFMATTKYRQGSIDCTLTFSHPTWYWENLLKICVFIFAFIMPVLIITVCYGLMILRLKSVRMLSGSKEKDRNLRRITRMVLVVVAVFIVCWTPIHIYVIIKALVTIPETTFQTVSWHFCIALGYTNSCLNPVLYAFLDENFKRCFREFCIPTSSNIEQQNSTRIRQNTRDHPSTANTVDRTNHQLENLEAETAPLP
- TEST_METHOD_NOTES: Mu Opioid Receptor Functional Assay: [35S]GTPγS Binding in CHO-hMOR Cell Membranes, Versions 1 and 2
- EXPERIMENTAL_SETUP: version 2, read-out: MOR GTP binding assay v2 EC50
pEC50: −log10 of the molar value.
Rule: pEC50 of 8 or more gives 1; anything lower gives -1.

Solved cases (3 shown):
COC(=O)N[C@@H](Cc1c(C)cc(C(N)=O)cc1C)C(=O)N(Cc1ccc(OC)c(C(=O)OC)c1)[C@@H](C)c1nc(-c2ccccc2)c[nH]1
-1
COc1ccc(CN(C(=O)[C@@H](N)Cc2c(C)cc(C(N)=O)cc2C)[C@@H](C)c2nc(-c3ccccc3)c[nH]2)cc1C(=O)O
1
COC(=O)c1ccc(CN(C(=O)[C@@H](N)Cc2c(C)cc(C(N)=O)cc2C)[C@@H](C)c2nc(-c3ccccc3)c[nH]2)nc1
1

Incoming: hey, is pEC50 for this one >= 8? COc1ccc(CN(C(=O)[C@@H](N)Cc2c(C)cc(O)cc2C)[C@@H](C)c2nc(-c3ccccc3)c[nH]2)cc1C(=O)O
Outgoing: 1

Incoming: hey, is pEC50 for this one >= 8? COC(=O)c1ccnc(CN(C(=O)[C@@H](N)Cc2c(C)cc(C(N)=O)cc2C)[C@@H](C)c2nc(-c3ccccc3)c[nH]2)c1
Outgoing: -1

Incoming: hey, is pEC50 for this one >= 8? COc1ccc(CN(C(=O)[C@@H](N)Cc2c(C)cc(C(N)=O)cc2C)[C@@H](C)c2nc(-c3ccccc3)c[nH]2)cc1-c1nnn(C(C)(C)C)n1
Outgoing: -1

Incoming: hey, is pEC50 for this one >= 8? Cc1cc(C(N)=O)cc(C)c1C[C@H](N)C(=O)N(Cc1ccnc(C(=O)O)c1)[C@@H](C)c1nc(-c2ccccc2)c[nH]1
Outgoing: -1

Incoming: hey, is pEC50 for this one >= 8? COc1ccc(CN(C(=O)[C@@H](N)Cc2c(C)cc(C(N)=O)cc2C)[C@@H](C)c2nc(-c3ccccc3)c[nH]2)cc1C(=O)N1CCOCC1
Outgoing: 1

Incoming: hey, is pEC50 for this one >= 8? COC(=O)c1ccc(CN(C(=O)[C@@H](N)Cc2c(C)cc(C(N)=O)cc2C)[C@@H](C)c2nc(-c3ccccc3)c[nH]2)o1
Outgoing: 1

The origin of these recorded values is patent US10213415B2.
